experiment: Metabolite profile in rat urine; assay type: in vivo, male Sprague-Dawley rats; settings: group 1C (IV dose) pooled urine, 2 h collection
Recorded % HPLC (percent of HPLC peak area in the sample extract) values for a group of compounds are listed next.
Your answer should be a plain number; it is taken to be in %.

compound="CC(C)(CO)C(=O)SCCOP(=O)(NCc1ccccc1)OC[C@H]1O[C@@H](n2cnc3c(=O)[nH]c(N)nc32)[C@](C)(O)[C@@H]1O (mixture of isomers)" val=48.9

The reported % HPLC (percent of HPLC peak area in the sample extract) of the compound C[C@@]1(O)[C@H](O)[C@@H](COP(=O)(O)NCc2ccccc2)O[C@H]1n1cnc2c(=O)[nH]c(N)nc21 was 2.57

% HPLC (percent of HPLC peak area in the sample extract) measured on CC(C)(CO)C(=O)SCCOP(N)(=O)OC[C@H]1O[C@@H](n2cnc3c(=O)[nH]c(N)nc32)[C@](C)(O)[C@@H]1O (single isomer, unassigned; diastereomer 2) [Compd 3 Diastereomer 2] = 2.69

Input C[C@@]1(O)[C@H](O)[C@@H](CO)O[C@H]1n1cnc2c(=O)[nH]c(N)nc21 [2′-C-methyl guanosine, 9-(2-C-methyl-β-D-ribofuranosyl)guanine, reference compound] . Output % HPLC (percent of HPLC peak area in the sample extract): 35.1

The reported value for CC(C)(CO)C(=O)SCCOP(N)(=O)OC[C@H]1O[C@@H](n2cnc3c(=O)[nH]c(N)nc32)[C@](C)(O)[C@@H]1O (single isomer, unassigned; diastereomer 1) [Compd 3 Diastereomer 1] in terms of % HPLC (percent of HPLC peak area in the sample extract) is 1.01
